# Test system: Saccharomyces cerevisiae
# PROTOCOL DETAILS: Antimicrobial activity against Saccharomyces cerevisiae isolate ADdelta overexpressing Abc1p after 48 hrs by liquid microdilution assay
# Type: functional

COMPOUND: CC(=O)N1CCN(c2ccc(OCC3COC(Cn4ccnc4)(c4ccc(Cl)cc4Cl)O3)cc2)CC1 (stereo not given)
MIC (µg/mL): 0.031
//
COMPOUND: C[C@@H](c1ncncc1F)[C@](O)(Cn1cncn1)c1ccc(F)cc1F
MIC (µg/mL): 0.0078
//
COMPOUND: Clc1ccc(COC(Cn2ccnc2)c2ccc(Cl)cc2Cl)c(Cl)c1 (stereo not given)
MIC (µg/mL): 0.0078
//
COMPOUND: CCC(C)n1ncn(-c2ccc(N3CCN(c4ccc(OCC5COC(Cn6cncn6)(c6ccc(Cl)cc6Cl)O5)cc4)CC3)cc2)c1=O (stereo not given)
MIC (µg/mL): 0.031
//
COMPOUND: OC(Cn1cncn1)(Cn1cncn1)c1ccc(F)cc1F
MIC (µg/mL): 0.5

###

# Test system: Saccharomyces cerevisiae
# PROTOCOL DETAILS: Antimicrobial activity against Saccharomyces cerevisiae isolate ADdelta overexpressing Candida albicans ERG11A after 48 hrs by liquid microdilution assay
# Assay type: functional
MEASURED ENDPOINT: MIC (µg/mL)

MOLECULE: CC(=O)N1CCN(c2ccc(OCC3COC(Cn4ccnc4)(c4ccc(Cl)cc4Cl)O3)cc2)CC1 (stereo not given)
QUANTITATIVE READOUT: 0.125
//
MOLECULE: Clc1ccc(COC(Cn2ccnc2)c2ccc(Cl)cc2Cl)c(Cl)c1 (stereo not given)
QUANTITATIVE READOUT: 0.063
//
MOLECULE: C[C@@H](c1ncncc1F)[C@](O)(Cn1cncn1)c1ccc(F)cc1F
QUANTITATIVE READOUT: 0.031
//
MOLECULE: CCC(C)n1ncn(-c2ccc(N3CCN(c4ccc(OCC5COC(Cn6cncn6)(c6ccc(Cl)cc6Cl)O5)cc4)CC3)cc2)c1=O (stereo not given)
QUANTITATIVE READOUT: 0.125
//
MOLECULE: OC(Cn1cncn1)(Cn1cncn1)c1ccc(F)cc1F
QUANTITATIVE READOUT: 2

###

# Test system: Pichia kudriavzevii
# PROTOCOL DETAILS: Antimicrobial activity against Candida krusei NZCDC 89.221 after 48 hrs by liquid microdilution assay
# Type: functional
# MEASUREMENT CONDITIONS: NZCDC 89.221, 48 h
Here the recorded MIC is given for each entry.
MEASURED ENDPOINT: MIC (µg/mL)

MOLECULE: Clc1ccc(COC(Cn2ccnc2)c2ccc(Cl)cc2Cl)c(Cl)c1 (stereo not given)
MEASURED ENDPOINT: MIC
QUANTITATIVE READOUT: 4
--
MOLECULE: OC(Cn1cncn1)(Cn1cncn1)c1ccc(F)cc1F
MEASURED ENDPOINT: MIC
QUANTITATIVE READOUT: 256
--
MOLECULE: C[C@@H](c1ncncc1F)[C@](O)(Cn1cncn1)c1ccc(F)cc1F
MEASURED ENDPOINT: MIC
QUANTITATIVE READOUT: 1
--
MOLECULE: CCC(C)n1ncn(-c2ccc(N3CCN(c4ccc(OCC5COC(Cn6cncn6)(c6ccc(Cl)cc6Cl)O5)cc4)CC3)cc2)c1=O (stereo not given)
MEASURED ENDPOINT: MIC
QUANTITATIVE READOUT: 1
--
MOLECULE: CC(=O)N1CCN(c2ccc(OCC3COC(Cn4ccnc4)(c4ccc(Cl)cc4Cl)O3)cc2)CC1 (stereo not given)
MEASURED ENDPOINT: MIC
QUANTITATIVE READOUT: 2
